- measured_target: CDK9/cyclin T complex (Homo sapiens, UniProt P50750)
- Construct: purchased Proqinase GmbH, Germany
- Sequence (P50750 whole entry): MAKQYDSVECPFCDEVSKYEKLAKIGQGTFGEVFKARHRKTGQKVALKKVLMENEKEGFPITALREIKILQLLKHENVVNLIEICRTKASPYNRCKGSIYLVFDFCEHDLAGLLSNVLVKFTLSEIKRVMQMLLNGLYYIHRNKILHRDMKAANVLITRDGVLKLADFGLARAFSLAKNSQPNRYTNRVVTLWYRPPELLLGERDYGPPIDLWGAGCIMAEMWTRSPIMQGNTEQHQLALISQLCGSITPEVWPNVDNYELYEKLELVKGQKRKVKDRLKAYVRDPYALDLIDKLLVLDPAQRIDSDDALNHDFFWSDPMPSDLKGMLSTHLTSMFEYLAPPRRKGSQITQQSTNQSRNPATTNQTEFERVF
- Sequence (O60563 whole entry partner): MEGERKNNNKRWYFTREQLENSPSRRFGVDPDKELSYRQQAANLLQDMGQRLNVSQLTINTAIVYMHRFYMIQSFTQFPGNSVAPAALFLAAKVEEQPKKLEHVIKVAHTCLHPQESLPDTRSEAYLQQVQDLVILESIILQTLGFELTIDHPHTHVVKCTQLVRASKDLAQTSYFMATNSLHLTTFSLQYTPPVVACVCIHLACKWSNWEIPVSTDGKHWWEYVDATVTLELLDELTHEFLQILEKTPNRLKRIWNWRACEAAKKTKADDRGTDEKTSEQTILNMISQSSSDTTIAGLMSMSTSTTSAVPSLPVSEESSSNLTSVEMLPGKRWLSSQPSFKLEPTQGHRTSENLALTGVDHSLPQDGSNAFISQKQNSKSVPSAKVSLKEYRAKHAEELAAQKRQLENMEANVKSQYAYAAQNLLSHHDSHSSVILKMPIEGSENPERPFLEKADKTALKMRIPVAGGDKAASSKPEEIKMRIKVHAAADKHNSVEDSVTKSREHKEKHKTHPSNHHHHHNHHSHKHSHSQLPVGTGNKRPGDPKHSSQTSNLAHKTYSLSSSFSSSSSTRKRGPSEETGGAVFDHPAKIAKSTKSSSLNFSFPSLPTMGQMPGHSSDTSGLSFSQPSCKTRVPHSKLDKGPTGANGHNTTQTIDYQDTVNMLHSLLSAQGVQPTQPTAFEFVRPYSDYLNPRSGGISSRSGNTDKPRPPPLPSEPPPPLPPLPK
- protocol: CDK9/cyclin T kinase assay (as for CDK7)
- Type: biochemical
- assay_conditions: Table 2; read-out: CDK9 IC50
pIC50: −log10 of the molar value.
quantity_measured: pIC50

Solved entries (count: 3):
molecule | pIC50
CC(C)Nc1cc(NCc2ccccc2)n2ncc(C(C)C)c2n1 [Example 2] | < 6.00
CC(C)c1cnn2c(NCc3ccccc3F)cc(N[C@@H](CO)CCCCCCN)nc12 [Example 12] | 6.00 to 7.00
CC(C)c1cnn2c(NCc3ccccc3)cc(NCCOCCO)nc12 [Example 3] | ~7.00

Let's switch to this molecule now.
Q: Record lookup: for CDK9/cyclin T complex (Homo sapiens, UniProt P50750), what pIC50 belongs to CC[C@H](CO)Nc1cc(NCc2ccccc2)n2ncc(C(C)C)c2n1 [Example 6] ?
A: ~7.00

----------
This section lists IC50 readings for CDK 5 (Homo sapiens).
Response body: numeric value in nM, unit text excluded.

mol | measured_result
CC(C)c1cnn2c(NCc3ccccc3)cc(N[C@@H](CO)[C@H](O)CO)nc12 | 30

Q: Returns the measured IC50 for the input compound. Input: CC(C)c1cnn2c(NCc3ccccc3)cc(N[C@@H](CO)[C@@H](O)CO)nc12
A: 45

----------
- System: MCF-7 cell line
- protocol: cells
- Assay type: cell-based
- assay_conditions: MCF-7, SRB assay, 24 hours; listed as ICEC-0325 (AS-570)
quantity_measured: LC50 (concentration causing 50% net cell kill) (µM)
Response body: numeric value in µM, unit text excluded.

Q: Returns the measured LC50 (concentration causing 50% net cell kill) for the input compound. Input: CC(C)c1cnn2c(NCc3ccccc3)cc(N[C@@H](CO)CCCCCCc3ccccn3)nc12
A: 17

----------
# mean activity remaining (as a percentage of the original activity), CK 2 per entry
- Tested on: CK2
- protocol: Kinase screen: CK2 assay
- Type: biochemical
- assay_conditions: 10 micromolar compound
Response body: numeric value in %, unit text excluded.

mol | endpoint_unit | measured_result
C=C[C@H](CO)Nc1cc(NCc2ccccc2)n2ncc(C(C)C)c2n1 | % | 94
CC(C)c1cnn2c(NCc3ccccc3)cc(N[C@@H](CO)[C@H](O)CO)nc12 | % | 89
CC[C@H](CO)Nc1cc(NCc2ccccc2)n2ncc(C(C)C)c2n1 | % | 87

Let's switch to this compound now.
Q: Returns the measured mean activity remaining (as a percentage of the original activity), CK 2 for the input compound. Input: CC(C)c1cnn2c(NCc3ccccc3F)cc(NCCCCCN)nc12
A: 92

----------
- measured_target: CDK4 (Homo sapiens)
- protocol: CDK4 in vitro kinase inhibition (protocol similar to Example 14)
- Format: biochemical
- assay_conditions: 100 nM; mean of three (standard deviation); read-out: CDK4 % remaining kinase activity after incubation with 100 nM of compound
Label criterion met when remaining activity at 0.1 µM is strictly below 80%; at or above that, label criterion not met.

Please review the entries below; each comes with its answer.
compound | class_label
CC(C)c1cnn2c(NCc3ccccc3)cc(N[C@@H](CO)CCCCCN)nc12 | criterion met
CC(C)c1cnn2c(NCc3ccccc3)cc(NCCCCCCC#N)nc12 | criterion not met
CC(C)c1cnn2c(NCc3ccccc3)cc(N[C@@H](CO)[C@@H](O)CO)nc12 | criterion met
CC(C)c1cnn2c(NCc3ccccc3)cc(NCCOCCO)nc12 | criterion not met
CC(C)c1cnn2c(NCc3ccccc3F)cc(N[C@@H](CO)CCCCCCc3ccc4ccccc4n3)nc12 | criterion not met
CC(C)c1cnn2c(NCc3ccccc3F)cc(N[C@@H](CO)CCCCCN)nc12 | criterion not met
CC(C)c1cnn2c(NCc3ccccc3)cc(NCCCCCCC(=N)N)nc12 | criterion not met
CC(C)c1cnn2c(NCc3ccccc3F)cc(NCCCCCCN)nc12 | criterion not met
CC[C@H](CO)Nc1cc(NCc2ccccc2)n2ncc(C(C)C)c2n1 | criterion not met
CC(C)c1cnn2c(NCc3ccccc3)cc(N[C@@H](CO)CCCCCCCc3ccc(F)nc3)nc12 | criterion not met

Q: Does the reported remaining activity at 0.1 µM of CC(C)c1cnn2c(NCc3ccccc3F)cc(NC(CO)CCCCCCCc3cncnc3)nc12 (stereo not drawn) stay below 80%?
A: criterion not met

Q: Does the reported remaining activity at 0.1 µM of CC(C)Nc1cc(NCc2ccccc2)n2ncc(C(C)C)c2n1 stay below 80%?
A: criterion met

Q: Does the reported remaining activity at 0.1 µM of CC(C)c1cnn2c(NCc3ccccc3F)cc(NC(CO)CO)nc12 stay below 80%?
A: criterion not met

Q: Does the reported remaining activity at 0.1 µM of CC(C)c1cnn2c(NCc3ccccc3F)cc(NC(CO)CCCCCCc3ccccn3)nc12 (stereo not drawn) stay below 80%?
A: criterion not met

----------
- measured_target: DYRK1A (Homo sapiens, UniProt Q13627)
quantity_measured: IC50 (nM)
Response body: numeric value in nM, unit text excluded.

Q: Returns the measured IC50 for the input compound. Input: CC(C)c1cnn2c(NCc3ccccc3)cc(NCCCCCCCN)nc12
A: 2300

----------
# LC50 (concentration causing 50% net cell kill) per entry
- System: MCF-7 cell line
- protocol: cells
- Type: cell-based
- assay_conditions: MCF-7, SRB assay, 24 hours
Response body: numeric value in µM, unit text excluded.

compound | measured_result
CC(C)c1cnn2c(NCc3ccccc3F)cc(NCC3CCC(CN)CC3)nc12 (centres unmarked) [ICEC0214] | 140

Q: Record lookup: for MCF-7 cell line, what LC50 (concentration causing 50% net cell kill) belongs to CC(C)c1cnn2c(NCc3ccccc3F)cc(NCC3CCC(CN)CC3)nc12 (centres unmarked) [ICEC0213] ?
A: 31

----------
# mean activity remaining (as a percentage of the original activity), AMPK per entry
- Tested on: AMPK
- protocol: Kinase screen: AMPK assay
- Assay type: biochemical
- assay_conditions: 10 micromolar compound
Response body: numeric value in %, unit text excluded.

Solved entries (count: 3):
mol | measured_target | endpoint_unit | measured_result
CC(C)c1cnn2c(NCc3ccccc3F)cc(NCCCCCN)nc12 | AMPK | % | 75
C=C[C@H](CO)Nc1cc(NCc2ccccc2)n2ncc(C(C)C)c2n1 | AMPK | % | 85
CC[C@H](CO)Nc1cc(NCc2ccccc2)n2ncc(C(C)C)c2n1 | AMPK | % | 84

Let's switch to this molecule now.
Q: Returns the measured mean activity remaining (as a percentage of the original activity), AMPK for the input molecule. Input: CC(C)c1cnn2c(NCc3ccccc3)cc(N[C@@H](CO)[C@H](O)CO)nc12
A: 88

----------
- measured_target: CDK4 (Homo sapiens, UniProt P11802)
- Sequence (P11802 whole entry): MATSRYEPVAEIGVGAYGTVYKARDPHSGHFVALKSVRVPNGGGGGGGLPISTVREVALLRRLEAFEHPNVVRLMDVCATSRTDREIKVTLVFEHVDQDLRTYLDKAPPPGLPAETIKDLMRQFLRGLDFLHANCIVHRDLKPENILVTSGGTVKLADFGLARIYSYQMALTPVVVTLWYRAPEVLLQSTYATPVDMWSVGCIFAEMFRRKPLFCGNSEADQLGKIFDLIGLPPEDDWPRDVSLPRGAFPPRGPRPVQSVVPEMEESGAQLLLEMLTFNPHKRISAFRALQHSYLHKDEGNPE
- Sequence (P24385 whole entry partner): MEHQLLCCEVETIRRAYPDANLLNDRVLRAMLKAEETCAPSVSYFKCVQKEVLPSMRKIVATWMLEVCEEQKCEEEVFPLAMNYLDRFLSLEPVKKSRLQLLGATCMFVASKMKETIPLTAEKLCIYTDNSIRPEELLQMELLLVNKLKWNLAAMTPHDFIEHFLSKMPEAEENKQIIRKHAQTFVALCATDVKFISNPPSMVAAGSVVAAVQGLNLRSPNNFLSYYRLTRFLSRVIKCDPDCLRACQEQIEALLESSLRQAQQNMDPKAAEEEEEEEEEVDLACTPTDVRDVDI
- protocol: CDK4 in vitro kinase inhibition (protocol similar to Example 14)
- Type: biochemical
- assay_conditions: 100 nM; mean of three (standard deviation); read-out: CDK4 % remaining kinase activity after incubation with 100 nM of compound
# remaining activity at 0.1 µM per entry
Response body: numeric value in %, unit text excluded.

molecule | measured_target | measured_result
CC(C)c1cnn2c(NCc3ccccc3)cc(NC(CO)CCCCCCc3ccccn3)nc12 (centres unmarked) | CDK4 (Homo sapiens, UniProt P11802) | 98
CC(C)c1cnn2c(NCc3ccccc3F)cc(NC(CO)CCCCCCCc3ccc(F)nc3)nc12 (centres unmarked) | CDK4 (Homo sapiens, UniProt P11802) | 92
CC(C)c1cnn2c(NCc3ccccc3)cc(NC3CCC(Nc4cc(NCc5ccccc5)n5ncc(C(C)C)c5n4)CC3)nc12 (centres unmarked) | CDK4 (Homo sapiens, UniProt P11802) | 98

Q: Returns the measured remaining activity at 0.1 µM for the input molecule. Input: CC(C)c1cnn2c(NCc3ccccc3F)cc(N[C@@H](CO)CCCCCCc3ncccn3)nc12
A: 99

Q: Returns the measured remaining activity at 0.1 µM for the input molecule. Input: CC(C)c1cnn2c(NCc3ccccc3F)cc(N[C@@H](CO)CCCCCCN)nc12
A: 90

Q: Returns the measured remaining activity at 0.1 µM for the input molecule. Input: CC(C)c1cnn2c(NCc3ccccc3F)cc(NCC(O)CO)nc12 (centres unmarked)
A: 99

Q: Returns the measured remaining activity at 0.1 µM for the input molecule. Input: CC(C)c1cnn2c(NCc3ccccc3)cc(N[C@@H](CO)CCCCCCc3ccccn3)nc12
A: 100

Q: Returns the measured remaining activity at 0.1 µM for the input molecule. Input: CC(C)c1cnn2c(NCc3ccccc3)cc(N[C@@H](CO)[C@H](O)CO)nc12
A: 88

----------
- measured_target: CDK2/cyclin A complex (Homo sapiens, UniProt P24941)
- Construct: purchased Proqinase GmbH, Germany
- protocol: CDK2/cyclin A kinase assay (as for CDK7)
- Format: biochemical
- assay_conditions: Table 2; read-out: CDK2 IC50
pIC50: −log10 of the molar value.
# pIC50 per entry

mol | measured_target | measured_result
CC[C@H](CO)Nc1cc(NCc2ccccc2)n2ncc(C(C)C)c2n1 | CDK2/cyclin A complex (Homo sapiens, UniProt P24941) | < 6.00
CC(C)c1cnn2c(NCc3ccccc3)cc(NCCOCCO)nc12 | CDK2/cyclin A complex (Homo sapiens, UniProt P24941) | < 6.00

Q: Returns the measured pIC50 for the input compound. Input: CC(C)Nc1cc(NCc2ccccc2)n2ncc(C(C)C)c2n1
A: ~7.00

Q: Returns the measured pIC50 for the input compound. Input: CC(C)c1cnn2c(NCc3ccccc3F)cc(N[C@@H](CO)CCCCCCN)nc12
A: < 6.00
